smiles record	melting point
CC(=O)/N=c1\c(F)cn(S(=O)(=O)c2cc(Cl)sc2Cl)c(=O)n1C	154 °C
CC(C)c1ccc(S(=O)(=O)n2cc(F)/c(=N\Cc3ccccc3F)n(C)c2=O)cc1	140 to 143 °C
CC(C)c1ccc(S(=O)(=O)n2cc(F)/c(=N\C(=O)Oc3ccccc3)n(C)c2=O)cc1	180 to 181 °C
C/N=c1\c(F)cn(S(=O)(=O)c2ccc(F)cc2Cl)c(=O)n1C	109 to 112 °C
Cc1cccc(S(=O)(=O)n2cc(F)/c(=N\Cc3ccccc3F)n(C)c2=O)c1	177 to 180 °C
CC(=O)/N=c1\c(F)cn(S(=O)(=O)c2ccccc2)c(=O)n1C	174 °C
C/N=c1\c(F)cn(S(=O)(=O)c2cccc(OC)c2)c(=O)n1C	111.4 to 112 °C
C/N=c1\c(F)cn(S(=O)(=O)c2cn(C)nc2C)c(=O)n1C	147 to 149 °C
COC(=O)/N=c1\c(F)cn(S(=O)(=O)c2cccc(C)c2)c(=O)n1C	200 to 201 °C
Cc1cc(S(=O)(=O)n2cc(F)/c(=N\C(=O)Oc3ccccc3)n(C)c2=O)c(C)cc1Cl	209 to 211 °C
COc1ccc(S(=O)(=O)n2cc(F)/c(=N\Cc3ccccc3F)n(C)c2=O)cc1	188 to 191 °C
C/N=c1\c(F)cn(S(=O)(=O)c2cc(Cl)sc2Cl)c(=O)n1C	157.1 to 158 °C
C/N=c1\c(F)cn(S(=O)(=O)c2c(C)cc(C)cc2C)c(=O)n1C	175.7 to 177.6 °C
C/N=c1\c(F)cn(S(=O)(=O)c2cc(OC)ccc2OC)c(=O)n1C	115 to 117.8 °C
C/N=c1\c(F)cn(S(=O)(=O)c2ccc(C)c(Cl)c2)c(=O)n1C	149.4 to 151 °C
COC(=O)/N=c1\c(F)cn(S(=O)(=O)c2ccc(C(C)C)cc2)c(=O)n1C	116 to 117 °C
C/N=c1\c(F)cn(S(=O)(=O)C2CC2)c(=O)n1C	102.2 to 104 °C
C/N=c1\c(F)cn(S(=O)(=O)c2cccc(C#N)c2)c(=O)n1C	148.6 to 150.6 °C

---

# Test system: Septoria tritici
# experimental details: Fungicidal activity: leaf blotch of wheat, one-day protectant and three-day curative tests on wheat plants
# Type: in vivo
# test context: Zymoseptoria tritici, 24 h; One-Day Protectant (1 DP), 100 ppm, wheat plants (variety Yuma); read-out: SEPTTR 100 PPM 1 DP (% Disease Control rating)
The entries below come with measured pest or weed control at 100 ppm values attached.

compound	pest or weed control at 100 ppm
C/N=c1\c(F)cn(S(=O)(=O)c2c(C)noc2C)c(=O)n1C [Compound F19]	0 to 25%
C/N=c1\c(F)cn(S(=O)(=O)c2cccc(C)c2)c(=O)n1C [Compound F16]	26 to 50%
COC(=O)/N=c1\c(F)cn(S(=O)(=O)c2cc(Cl)sc2Cl)c(=O)n1C [Compound F51]	0 to 25%
C/N=c1\c(F)cn(S(=O)(=O)c2ccc(Cl)cc2)c(=O)n1C [Compound F5]	76 to 100%
COC(=O)/N=c1\c(F)cn(S(=O)(=O)c2cc(C)c(Cl)cc2C)c(=O)n1C [Compound F50]	0 to 25%
Cc1ccc(S(=O)(=O)n2cc(F)/c(=N\Cc3ccccc3F)n(C)c2=O)cc1 [Compound F54]	0 to 25%
